# TARGET ENTITY: NO synthase (Rattus norvegicus, UniProt P29476)
# Construct: the supernatant was then removed by decantation and frozen in portions at −80° C; from tissue; host or cells: rat cerebellum, 20,000 g supernatant of homogenate
# TEST DETAILS: HTS-NOS assay (NOS assay): conversion of radioactive arginine, cation-exchanger filter plate
# Assay type: biochemical
# ASSAY CONTEXT: read-out: HTS-NOS assay: % inhibition (10 μM)
READOUT LABEL: inhibition at 10 µM (%)
Report the figure in % without appending any unit label.

Past entries and their recorded results:
{"columns": ["COMPOUND STRUCTURE STRING", "inhibition at 10 µM, %"],
 "data": [
  ["Cc1ccn2c(Nc3c(C)cccc3C)c(-c3cccc(Cl)c3Cl)nc2c1", 69],
  ["CC(=O)N(c1c(-c2ccc(C(=O)O)s2)nc2cnccn12)C(C)(C)CC(C)(C)C", 52],
  ["COc1cc(-c2nc3nc(C)cc(C)n3c2N(C(C)=O)C2CCCCC2)ccc1OC(C)=O", 53],
  ["Cc1ccn2c(NC(C)(C)C)c(-c3ccc(CO)o3)nc2c1", 52],
  ["Cc1ccc2nc(-c3cccnc3)c(NC(C)(C)C)n2c1", 51]
]}

molecule Cc1cc(C)n2c(Nc3c(C)cccc3C)c(-c3sccc3Br)nc2c1 , inhibition at 10 µM observed: 55

molecule CC(=O)N(c1c(C)cccc1C)c1c(-c2cccc(Cl)c2Cl)nc2cccc(C)n12 , inhibition at 10 µM observed: 58

molecule CC(=O)N(c1c(-c2cccnc2)nc2cc(C)cc(C)n12)C(C)(C)CC(C)(C)C , inhibition at 10 µM observed: 68

molecule Cc1ccn2c(NC(C)(C)CC(C)(C)C)c(-c3cccc4ccccc34)nc2c1 , inhibition at 10 µM observed: 52
